Origin of the recorded values: the supplement of paper PMC6555819

Tested on: PPARg:RXRa DBDmut IVT, anti-RXR (DBD mutation: RXRa K156A/R161A, NR concentration 270 nM, RXRa partner concentration 90 nM)
Test: PBM binding z-score (relative to random genomic background probes); higher = stronger binding; sequences stand for … in GC…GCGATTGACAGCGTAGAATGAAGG
ENDPOINT_NAME: PBM binding z-score
Provide a numeric answer; units are not to be included.

Look over these answered cases.
SEQUENCE | ENDPOINT_RESULT
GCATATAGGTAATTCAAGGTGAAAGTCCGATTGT | 3.96
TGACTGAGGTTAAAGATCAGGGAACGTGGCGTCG | -0.162
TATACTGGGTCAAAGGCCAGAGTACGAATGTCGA | 6.17
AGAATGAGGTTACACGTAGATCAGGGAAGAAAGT | 4.19
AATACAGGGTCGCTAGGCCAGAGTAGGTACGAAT | 0.129

Which value of PBM binding z-score has been reported for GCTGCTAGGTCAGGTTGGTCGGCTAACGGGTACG in the records?
2.56

Which value of PBM binding z-score has been reported for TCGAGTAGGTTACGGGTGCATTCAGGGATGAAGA in the records?
2.9

Which value of PBM binding z-score has been reported for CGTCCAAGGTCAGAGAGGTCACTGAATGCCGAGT in the records?
3.27

* * *

Test system: RARa:RXR (NR concentration 270 nM, RXRa partner concentration 90 nM)
Assay: PBM binding z-score (relative to random genomic background probes); higher = stronger binding; sequences stand for … in GC…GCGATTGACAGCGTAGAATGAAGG
PBM binding z-score: recorded values
Provide a numeric answer; units are not to be included.

Look over these answered cases.
SEQUENCE | PBM binding z-score
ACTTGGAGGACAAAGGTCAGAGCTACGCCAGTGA | 5.83
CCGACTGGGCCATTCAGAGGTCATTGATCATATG | 4.62

Report PBM binding z-score for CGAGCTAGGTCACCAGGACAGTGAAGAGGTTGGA tested on RARa:RXR (NR concentration 270 nM, RXRa partner concentration 90 nM).
2.36

Report PBM binding z-score for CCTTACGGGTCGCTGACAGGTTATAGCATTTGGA tested on RARa:RXR (NR concentration 270 nM, RXRa partner concentration 90 nM).
1.68

Report PBM binding z-score for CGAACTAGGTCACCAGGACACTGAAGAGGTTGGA tested on RARa:RXR (NR concentration 270 nM, RXRa partner concentration 90 nM).
2.73

Report PBM binding z-score for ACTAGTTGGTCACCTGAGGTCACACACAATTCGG tested on RARa:RXR (NR concentration 270 nM, RXRa partner concentration 90 nM).
5.48

Report PBM binding z-score for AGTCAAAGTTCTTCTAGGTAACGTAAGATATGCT tested on RARa:RXR (NR concentration 270 nM, RXRa partner concentration 90 nM).
0.106

Report PBM binding z-score for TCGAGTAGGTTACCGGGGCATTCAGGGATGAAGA tested on RARa:RXR (NR concentration 270 nM, RXRa partner concentration 90 nM).
0.534

* * *

PBM binding z-score: recorded values
Tested on: FXR:RXRa (NR concentration 270 nM, RXRa partner concentration 90 nM)
Assay: PBM binding z-score (relative to random genomic background probes); higher = stronger binding; sequences stand for … in GC…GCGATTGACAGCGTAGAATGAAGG
Provide a numeric answer; units are not to be included.

Look over these answered cases.
SEQUENCE | PBM binding z-score
AGTAGCAGGCCAAGGGTCACTCAAGATTAGTCCG | 2.36
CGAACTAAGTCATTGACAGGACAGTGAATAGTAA | -0.324
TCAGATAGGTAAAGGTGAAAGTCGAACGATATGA | 0.962
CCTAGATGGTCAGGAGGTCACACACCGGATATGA | 3.84
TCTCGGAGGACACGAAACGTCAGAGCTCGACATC | 0.138

Which value of PBM binding z-score has been reported for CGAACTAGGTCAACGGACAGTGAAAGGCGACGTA in the records?
3.7

Which value of PBM binding z-score has been reported for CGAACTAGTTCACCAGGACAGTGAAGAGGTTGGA in the records?
0.244

* * *

Tested on: LXRa homodimer (NR concentration 270 nM)
Experiment: PBM binding z-score (relative to random genomic background probes); higher = stronger binding; sequences stand for … in GC…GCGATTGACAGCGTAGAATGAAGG
Class (by PBM binding z-score) -- bucket A = under 0.1, bucket B = from 0.1 up to 2, bucket C = 2 and over

Bin this entry: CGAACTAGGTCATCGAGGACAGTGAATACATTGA
bucket B

Bin this entry: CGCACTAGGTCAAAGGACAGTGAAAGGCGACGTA
bucket A

* * *

System: PPARg:RXRa 90nM:30nM, anti-RXR (NR concentration 90 nM, RXRa partner concentration 30 nM)
Test: PBM binding z-score (relative to random genomic background probes); higher = stronger binding; sequences stand for … in GC…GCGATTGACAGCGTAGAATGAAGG
PBM binding z-score: recorded values

Look over these answered cases.
SEQUENCE | ASSAYED_SYSTEM | PBM binding z-score
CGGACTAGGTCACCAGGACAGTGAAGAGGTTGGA | PPARg:RXRa 90nM:30nM, anti-RXR (NR concentration 90 nM, RXRa partner concentration 30 nM) | 5.97
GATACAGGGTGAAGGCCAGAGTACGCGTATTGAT | PPARg:RXRa 90nM:30nM, anti-RXR (NR concentration 90 nM, RXRa partner concentration 30 nM) | 0.958
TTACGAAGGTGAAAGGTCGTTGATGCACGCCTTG | PPARg:RXRa 90nM:30nM, anti-RXR (NR concentration 90 nM, RXRa partner concentration 30 nM) | 8.17

Which value of PBM binding z-score has been reported for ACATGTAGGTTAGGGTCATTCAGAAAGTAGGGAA in the records?
5.57

* * *

PBM binding z-score: recorded values
Test system: PPARg:RXRa 270nM:90nM, anti-RXR (NR concentration 270 nM, RXRa partner concentration 90 nM)
Assay: PBM binding z-score (relative to random genomic background probes); higher = stronger binding; sequences stand for … in GC…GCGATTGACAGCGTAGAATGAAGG
Provide a numeric answer; units are not to be included.

Look over these answered cases.
SEQUENCE | ENDPOINT_NAME | ENDPOINT_RESULT
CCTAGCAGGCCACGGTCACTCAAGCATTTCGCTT | PBM binding z-score | 0.322
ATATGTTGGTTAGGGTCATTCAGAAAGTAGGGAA | PBM binding z-score | 3.69
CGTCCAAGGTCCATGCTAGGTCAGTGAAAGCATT | PBM binding z-score | -0.317

Which value of PBM binding z-score has been reported for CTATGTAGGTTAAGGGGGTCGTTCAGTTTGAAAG in the records?
7.03

Which value of PBM binding z-score has been reported for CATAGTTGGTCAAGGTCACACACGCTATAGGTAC in the records?
3.92

* * *

Test system: RARb homodimer (NR concentration 270 nM)
Assay: PBM binding z-score (relative to random genomic background probes); higher = stronger binding; sequences stand for … in GC…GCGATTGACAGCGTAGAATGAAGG
ENDPOINT_NAME: PBM binding z-score
Provide a numeric answer; units are not to be included.

Look over these answered cases.
SEQUENCE | PBM binding z-score
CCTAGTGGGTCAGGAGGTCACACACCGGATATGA | 4.61
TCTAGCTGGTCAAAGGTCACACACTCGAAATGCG | 5.13
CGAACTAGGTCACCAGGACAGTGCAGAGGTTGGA | 3.73
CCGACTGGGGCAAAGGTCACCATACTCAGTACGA | 4.81

Which value of PBM binding z-score has been reported for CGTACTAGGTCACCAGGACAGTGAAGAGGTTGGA in the records?
3.24

Which value of PBM binding z-score has been reported for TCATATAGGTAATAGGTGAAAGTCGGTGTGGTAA in the records?
0.632

* * *

PBM binding z-score: recorded values
System: PPARg:RXRa (NR concentration 180 nM, RXRa partner concentration 90 nM)
Assay: PBM binding z-score (relative to random genomic background probes); higher = stronger binding; sequences stand for … in GC…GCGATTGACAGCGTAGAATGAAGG
Provide a numeric answer; units are not to be included.

Look over these answered cases.
SEQUENCE | PBM binding z-score
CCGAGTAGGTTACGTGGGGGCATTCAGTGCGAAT | 1.87
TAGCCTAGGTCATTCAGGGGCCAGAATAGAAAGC | 2.33
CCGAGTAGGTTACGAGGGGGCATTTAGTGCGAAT | 1.87
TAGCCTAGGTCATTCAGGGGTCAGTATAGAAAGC | 4.13

Which value of PBM binding z-score has been reported for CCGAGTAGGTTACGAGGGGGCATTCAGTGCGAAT in the records?
2.22

Which value of PBM binding z-score has been reported for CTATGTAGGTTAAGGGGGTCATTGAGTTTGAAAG in the records?
8.96

Which value of PBM binding z-score has been reported for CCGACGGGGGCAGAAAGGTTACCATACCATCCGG in the records?
1.68
